Test: CCTE_Shafer_MEA_dev_mutual_information_norm: CCTE's Neural Network Formation Assay for Mutual Information Normalization, Shafer Lab (AID 2284091)
Method: CCTE_Shafer_MEA_dev assay is conducted using Axion Biosystems 48 well microelectrode array (MEA) plates and Maestro recording system. Each well of the MEA plate contains a grid of 16 microelectrodes embedded in the culture surface. Electrically active cells, such as neurons, can be cultured over the electrodes, and electrical activity in these cells can be recorded extracellularly. […]
Activity calls are given as the source filed them. The calls were made as follows: active = hit-call score of the fitted dose curve at least 0.9, where 1 is the maximum; inactive = score below 0.9.
// allowed return values: true (active), false (inactive)

compound	classification
CC1=NNC(=O)N(/N=C/c2cccnc2)C1	false
C=C(C)[C@H]1Cc2c(ccc3c2O[C@@H]2COc4cc(OC)c(OC)cc4[C@@H]2C3=O)O1	true
CC(C)[C@H](C(=O)O[C@H](C#N)c1cccc(Oc2ccccc2)c1)c1ccc(Cl)cc1	true
S=C1NCCN1	false
CC(C)=CC1C(C(=O)OCN2C(=O)C3=C(CCCC3)C2=O)C1(C)C (stereo unspecified)	false

Now consider the entry below.
Lab log entry: C#CCC1=C(C)C(OC(=O)C2C(C=C(C)C)C2(C)C)CC1=O (stereo unspecified) — outcome as called in the assay?
true

* * *

Read-out: Alkaline Phosphatase, Placental (ALPP) gene, ALPP (gene 250)
Assay: LTEA_HepaRG_ALPP: Life Technologies and Expression Analysis (LTEA) Assay for Alkaline Phosphatase, Placental (ALPP) gene using HepaRG (AID 2283468)
Conditions: mRNA level, 48 h; actives raise or lower the signal
Calls of active or inactive are those of the source. The calls were made as follows: active = hit-call score of the fitted dose curve at least 0.9, where 1 is the maximum; inactive = score below 0.9.
// allowed return values: yes = active, no = inactive

smiles string	classification
CSC1=N[C@@](C)(c2ccccc2)C(=O)N1Nc1ccccc1	yes
O=[N+]([O-])c1cc(C(F)(F)F)c(Cl)c([N+](=O)[O-])c1Nc1ncc(C(F)(F)F)cc1Cl	yes

Lab log entry: CCOP(=S)(OCC)Oc1ccc2c(C)c(Cl)c(=O)oc2c1 — outcome as called in the assay?
yes

Lab log entry: Cc1ccn2nc(S(=O)(=O)Nc3c(F)cccc3F)nc2n1 — outcome as called in the assay?
no

Lab log entry: N#CSCSC#N — outcome as called in the assay?
yes

Lab log entry: CC(=NC#N)N(C)Cc1ccc(Cl)nc1 — outcome as called in the assay?
no

* * *

Assay: BSK_SAg_Proliferation: Cell Proliferation Assessment in the BioMAP Diversity Plus: SAg Assay (AID 2283095);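 also: relative cell number as total protein by SRB absorbance in sub-confluent culture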
Conditions: primary human HUVEC with PBMC
Calls of active or inactive are those of the source. The calls were made as follows: active = hit-call score of the fitted dose curve at least 0.9, where 1 is the maximum; inactive = score below 0.9.
// allowed return values: yes (active), no (inactive)

compound	classification
COP(=O)(OC)SCn1c(=O)oc2cc(Cl)cnc21	yes
CCOP(=S)(OCC)Oc1ccc([N+](=O)[O-])cc1	yes
CNC(=O)ON=C(SC)C(=O)N(C)C	yes
C[Si](Cn1cncn1)(c1ccc(F)cc1)c1ccc(F)cc1	yes
CCCSP(=O)(OCC)Oc1ccc(Br)cc1Cl (configuration not stated)	yes
CCOC(=O)CC(SP(=O)(OC)OC)C(=O)OCC (configuration not stated)	no

Now consider the entry below.
Lab log entry: CN(C)C(=O)Nc1cccc(C(F)(F)F)c1 — outcome as called in the assay?
no

* * *

Read-out: Interleukin-8 (IL8), CXCL8 (gene 3576)
Assay: BSK_LPS_IL8: BioMAP Diversity Plus: LPS Assay for Interleukin-8 (IL8) Biomarker Activity (AID 2283078)
Settings: primary human HUVEC with PBMC; actives raise or lower the signal
Protocol: BSK_LPS is a cell-based, multiplexed-readout assay that uses umbilical vein endothelium and peripheral blood mononuclear cells, a human vascular primary cell co-culture, with measurements taken at 24 hours after chemical dosing in a 96-well plate.BSK_LPS_IL8 is an assay component measured in the BSK_LPS assay. It measures IL-8 antibody related to regulation of gene expression using ELISA technology.Data from the assay component BSK_LPS_IL8 was analyzed into 1 assay endpoint. […]
Active and inactive are the calls of the source. Rule for the calls: active = hit-call score of the fitted dose curve at least 0.9, where 1 is the maximum; inactive = score below 0.9.
// allowed return values: T = active, F = inactive

Lab log entry: C[Si](Cn1cncn1)(c1ccc(F)cc1)c1ccc(F)cc1 — outcome as called in the assay?
F

Lab log entry: C#CC(C)(C)NC(=O)c1cc(Cl)cc(Cl)c1 — outcome as called in the assay?
F
